target: Melanocyte-stimulating hormone receptor (Mus musculus); assay: Agonist activity to the mouse Melanocortin-1 receptor (mMC1R)
Sequence (Q01727 whole entry): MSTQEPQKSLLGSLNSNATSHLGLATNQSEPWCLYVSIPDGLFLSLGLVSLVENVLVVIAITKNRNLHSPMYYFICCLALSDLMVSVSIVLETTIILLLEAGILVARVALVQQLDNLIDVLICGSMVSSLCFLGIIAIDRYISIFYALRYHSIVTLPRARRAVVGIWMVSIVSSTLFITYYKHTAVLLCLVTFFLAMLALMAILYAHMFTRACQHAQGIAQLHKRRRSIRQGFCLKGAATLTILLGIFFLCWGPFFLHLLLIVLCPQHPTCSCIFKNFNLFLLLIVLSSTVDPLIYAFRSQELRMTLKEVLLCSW
quantity.measured: EC50 (µM)

- CC(=O)N[C@@H](Cc1c[nH]cn1)C(=O)NC1(C(=O)N[C@@H](CCCN=C(N)N)C(=O)N[C@@H](Cc2c[nH]c3ccccc23)C(N)=O)CCc2ccccc2C1 (stereo in doubt; 25): 2.35
- CC(=O)N[C@@H](Cc1cnc[nH]1)C(=O)N[C@H](CCc1ccccc1)C(=O)N[C@@H](CCCNC(=N)N)C(=O)N[C@@H](Cc1c[nH]c2ccccc12)C(N)=O: 6.25
- CC(=O)N[C@@H](Cc1cnc[nH]1)C(=O)N[C@@H](Cc1ccc(-c2ccccc2)cc1)C(=O)N[C@@H](CCCNC(=N)N)C(=O)N[C@@H](Cc1c[nH]c2ccccc12)C(N)=O: 10.6

(1) CC(=O)N[C@@H](Cc1c[nH]cn1)C(=O)N1Cc2ccccc2C[C@@H]1C(=O)N[C@@H](CCCN=C(N)N)C(=O)N[C@@H](Cc1c[nH]c2ccccc12)C(N)=O
(2) CC(=O)N[C@@H](Cc1c[nH]cn1)C(=O)NC1(C(=O)N[C@@H](CCCN=C(N)N)C(=O)N[C@@H](Cc2c[nH]c3ccccc23)C(N)=O)CCc2ccccc2C1 (stereo in doubt; 26)
(3) CC(=O)N[C@@H](Cc1c[nH]cn1)C(=O)N[C@@H](Cc1ccc2ccccc2c1)C(=O)N[C@@H](CCCN=C(N)N)C(=O)N[C@@H](Cc1c[nH]c2ccccc12)C(N)=O
(4) CC(=O)N[C@@H](Cc1c[nH]cn1)C(=O)N[C@H](Cc1ccc(-c2ccccc2)cc1)C(=O)N[C@@H](CCCN=C(N)N)C(=O)N[C@@H](Cc1c[nH]c2ccccc12)C(N)=O
Hi! Can you put these in order of EC50, lowest number first? Return the labels ranked in the requested order, please.
4, 2, 3, 1
(4: 0.0284 µM, 2: 5.8 µM, 3: 22 µM, 1: 40.8 µM)

(P) CC(=O)N[C@@H](Cc1cnc[nH]1)C(=O)N[C@@H](Cc1ccncc1)C(=O)N[C@@H](CCCNC(=N)N)C(=O)N[C@@H](Cc1c[nH]c2ccccc12)C(N)=O
(Q) CC(=O)N[C@@H](Cc1cnc[nH]1)C(=O)N[C@@H](Cc1cccnc1)C(=O)N[C@@H](CCCNC(=N)N)C(=O)N[C@@H](Cc1c[nH]c2ccccc12)C(N)=O
Lowest EC50? choose P or Q Answer = label.
Q
(Q: 22.9 µM, P: 36.7 µM)

---

// reported EC50 per item
molecular target: Melanocortin receptor 4 (Mus musculus, UniProt P56450); test: Agonist activity to the mouse Melanocortin-4 receptor (mMC4R)
Sequence (P56450 whole entry): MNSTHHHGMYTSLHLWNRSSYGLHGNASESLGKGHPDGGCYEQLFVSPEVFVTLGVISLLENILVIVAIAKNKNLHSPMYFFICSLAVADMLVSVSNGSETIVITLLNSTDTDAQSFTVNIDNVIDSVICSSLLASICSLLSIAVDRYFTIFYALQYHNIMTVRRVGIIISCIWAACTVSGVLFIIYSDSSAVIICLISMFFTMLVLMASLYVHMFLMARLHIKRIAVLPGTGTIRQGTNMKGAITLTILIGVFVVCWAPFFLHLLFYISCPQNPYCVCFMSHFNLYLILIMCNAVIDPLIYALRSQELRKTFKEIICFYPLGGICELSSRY
Where a SMILES comes first, the peptide text is derived from it.

Recorded results for 2 molecules are shown here.
* CC(=O)N[C@@H](Cc1cnc[nH]1)C(=O)N[C@H](C(=O)N[C@@H](CCCNC(=N)N)C(=O)N[C@@H](Cc1c[nH]c2ccccc12)C(N)=O)C(c1ccccc1)c1ccccc1 | > 100 µM
* CC(=O)N[C@@H](Cc1c[nH]cn1)C(=O)N[C@@H](Cc1c[nH]cn1)C(=O)N[C@@H](CCCN=C(N)N)C(=O)N[C@@H](Cc1c[nH]c2ccccc12)C(N)=O (Ac-HHRW-NH2) | > 100 µM

# get_value(readout='EC50', item= CC(=O)N[C@@H](Cc1cnc[nH]1)C(=O)N[C@H](Cc1ccc(O)cc1)C(=O)N[C@@H](CCCNC(=N)N)C(=O)N[C@@H](Cc1c[nH]c2ccccc12)C(N)=O )
2.4 µM

---

target: Melanocortin receptor 3 (Mus musculus); assay: Agonist activity to the mouse Melanocortin-3 receptor (mMC3R)
pEC50: −log10 of the molar value.
// reported pEC50 per item

Recorded results for 5 compounds are shown here.
• CC(=O)N[C@@H](Cc1cnc[nH]1)C(=O)N[C@H](Cc1ccc(O)cc1)C(=O)N[C@@H](CCCNC(=N)N)C(=O)N[C@@H](Cc1c[nH]c2ccccc12)C(N)=O = 4.47
• CC(=O)N[C@@H](Cc1cnc[nH]1)C(=O)N[C@@H](Cc1c[nH]c2ccccc12)C(=O)N[C@@H](CCCNC(=N)N)C(=O)N[C@@H](Cc1c[nH]c2ccccc12)C(N)=O = < 4.00
• CC(=O)N[C@@H](Cc1cnc[nH]1)C(=O)N[C@@H](Cc1cccc2ccccc12)C(=O)N[C@@H](CCCNC(=N)N)C(=O)N[C@@H](Cc1c[nH]c2ccccc12)C(N)=O = < 4.00
• CC(=O)N[C@@H](Cc1c[nH]cn1)C(=O)NC1(C(=O)N[C@@H](CCCN=C(N)N)C(=O)N[C@@H](Cc2c[nH]c3ccccc23)C(N)=O)CCc2ccccc2C1 (stereo in doubt; 25) = 5.00
• CC(=O)N[C@@H](Cc1cnc[nH]1)C(=O)N[C@@H](Cc1ccc(-c2ccccc2)cc1)C(=O)N[C@@H](CCCNC(=N)N)C(=O)N[C@@H](Cc1c[nH]c2ccccc12)C(N)=O = < 4.00

# get_value(readout='pEC50', item= CC(=O)N[C@@H](Cc1cnc[nH]1)C(=O)N[C@@H](Cc1cccnc1)C(=O)N[C@@H](CCCNC(=N)N)C(=O)N[C@@H](Cc1c[nH]c2ccccc12)C(N)=O )
< 4.00

---

// reported pEC50 per item
target: Melanocortin receptor 3 (Mus musculus, UniProt P33033); experiment: Agonist activity to the mouse Melanocortin-3 receptor (mMC3R); type: functional
Sequence (P33033 whole entry): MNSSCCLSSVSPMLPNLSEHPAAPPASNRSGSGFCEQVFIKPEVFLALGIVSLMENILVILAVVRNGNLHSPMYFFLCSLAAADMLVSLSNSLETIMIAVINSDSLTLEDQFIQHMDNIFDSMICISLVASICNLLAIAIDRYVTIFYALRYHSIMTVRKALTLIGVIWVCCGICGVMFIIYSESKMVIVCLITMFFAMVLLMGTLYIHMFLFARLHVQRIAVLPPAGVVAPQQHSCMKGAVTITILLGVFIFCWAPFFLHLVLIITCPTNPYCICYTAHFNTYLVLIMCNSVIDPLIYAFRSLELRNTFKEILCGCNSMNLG
pEC50: −log10 of the molar value.

Recorded results for 2 compounds are shown here.
* CC(=O)N[C@@H](Cc1c[nH]cn1)C(=O)N[C@H](Cc1c[nH]c2ccccc12)C(=O)N[C@@H](CCCN=C(N)N)C(=O)N[C@@H](Cc1c[nH]c2ccccc12)C(N)=O | < 4.00
* CC(=O)N[C@@H](Cc1c[nH]cn1)C(=O)N1Cc2ccccc2C[C@@H]1C(=O)N[C@@H](CCCN=C(N)N)C(=O)N[C@@H](Cc1c[nH]c2ccccc12)C(N)=O | < 4.00

Turning to the following compound.
# get_value(readout='pEC50', item= CC(=O)N[C@@H](Cc1c[nH]cn1)C(=O)N[C@@H](C(=O)N[C@@H](CCCN=C(N)N)C(=O)N[C@@H](Cc1c[nH]c2ccccc12)C(N)=O)C(c1ccccc1)c1ccccc1 )
< 4.00

---

// reported pEC50 per item
biological target: Melanocortin receptor 4 (Mus musculus, UniProt P56450); assay: Agonist activity to the mouse Melanocortin-4 receptor (mMC4R); format: functional
pEC50: −log10 of the molar value.

Recorded results for 3 compounds are shown here.
- CC(=O)N[C@@H](Cc1cnc[nH]1)C(=O)N[C@@H](Cc1cccc2ccccc12)C(=O)N[C@@H](CCCNC(=N)N)C(=O)N[C@@H](Cc1c[nH]c2ccccc12)C(N)=O: < 4.00
- CC(=O)N[C@@H](Cc1c[nH]cn1)C(=O)N[C@@H](C(=O)N[C@@H](CCCN=C(N)N)C(=O)N[C@@H](Cc1c[nH]c2ccccc12)C(N)=O)c1ccccc1: < 4.00
- CC(=O)N[C@@H](Cc1c[nH]cn1)C(=O)N[C@@H](CCc1ccccc1)C(=O)N[C@@H](CCCN=C(N)N)C(=O)N[C@@H](Cc1c[nH]c2ccccc12)C(N)=O: < 4.00

Turning to the following compound.
Give pEC50 (Melanocortin receptor 4 (Mus musculus, UniProt P56450)) of the following compound: CC(=O)N[C@@H](Cc1c[nH]cn1)C(=O)N1Cc2ccccc2C[C@@H]1C(=O)N[C@@H](CCCN=C(N)N)C(=O)N[C@@H](Cc1c[nH]c2ccccc12)C(N)=O
< 4.00

---

target: Melanocortin receptor 3 (Mus musculus, UniProt P33033); assay: Agonist activity to the mouse Melanocortin-3 receptor (mMC3R)
Where a SMILES comes first, the peptide text is derived from it.
quantity.measured: EC50

- CC(=O)N[C@@H](Cc1cnc[nH]1)C(=O)N[C@H](CCc1ccccc1)C(=O)N[C@@H](CCCNC(=N)N)C(=O)N[C@@H](Cc1c[nH]c2ccccc12)C(N)=O: > 100 µM
- CC(=O)N[C@@H](Cc1cnc[nH]1)C(=O)N[C@@H](C)C(=O)N[C@@H](CCCNC(=N)N)C(=O)N[C@@H](Cc1c[nH]c2ccccc12)C(N)=O (Ac-HARW-NH2): > 100 µM
- CC(=O)N[C@@H](Cc1cnc[nH]1)C(=O)N[C@H](Cc1cccc2ccccc12)C(=O)N[C@@H](CCCNC(=N)N)C(=O)N[C@@H](Cc1c[nH]c2ccccc12)C(N)=O: 4.1 µM
- CC(=O)N[C@@H](Cc1cnc[nH]1)C(=O)N[C@H](C(=O)N[C@@H](CCCNC(=N)N)C(=O)N[C@@H](Cc1c[nH]c2ccccc12)C(N)=O)C(c1ccccc1)c1ccccc1: > 100 µM
- CC(=O)N[C@@H](Cc1c[nH]cn1)C(=O)N[C@@H](C(=O)N[C@@H](CCCN=C(N)N)C(=O)N[C@@H](Cc1c[nH]c2ccccc12)C(N)=O)c1ccccc1: > 100 µM
- CC(=O)N[C@@H](Cc1cnc[nH]1)C(=O)N[C@H](C(=O)N[C@@H](CCCNC(=N)N)C(=O)N[C@@H](Cc1c[nH]c2ccccc12)C(N)=O)c1ccccc1: 44 µM

# get_value(readout='EC50', item= CC(=O)N[C@@H](Cc1c[nH]cn1)C(=O)N[C@@H](Cc1ccc2ccccc2c1)C(=O)N[C@@H](CCCN=C(N)N)C(=O)N[C@@H](Cc1c[nH]c2ccccc12)C(N)=O )
> 100 µM
